# Test system: BHK-21 cells
# PROTOCOL DESCRIPTION: inhibition of BHK-21 cell proliferation (CCK-8, optical density at 450 nm)
# Type: cell-based
# DETAILS: Mesocricetus auratus, inhibition ratio of cell proliferation, 48 hours after dosing, CCK-8
For each record, write down the corresponding pIC50.
A value of pIC50 is the negative decimal logarithm of a concentration given in moles per litre.

Record summary for Cc1cc(=O)n(-c2ccc(N3CCOCC3=O)c(F)c2)c(COc2cccc(F)c2)n1 [Example 66] : reported pIC50 = 3.64

Record summary for Cc1cc(=O)n(-c2ccc(N3CCOCC3)c(F)c2)c(COc2cc(F)cc(F)c2)n1 [Example 50] : reported pIC50 = 4.22

Record summary for CCN(CC)c1ccc(-n2c(C)nc(C)cc2=O)cc1F [Example 8] : reported pIC50 = 2.78

Record summary for CCCCCCN(CCCCCC)c1ccc(-n2c(C)nc(C)cc2=O)cc1Br [Example 41] : reported pIC50 = 4.22

Record summary for Cc1cc(=O)n(-c2ccc(N3CCOCC3)c(Cl)c2)c(COc2ccc(Cl)c3ccccc23)n1 [Example 67] : reported pIC50 = 3.85

Record summary for CCCOCCN(CCOCCC)c1ccc(-n2c(C)nc(C)cc2=O)cc1F [Example 32] : reported pIC50 = 3.09

Record summary for Cc1cc(=O)n(-c2ccc(N(CC(C)C)CC(C)C)c(F)c2)c(C)n1 [Example 23] : reported pIC50 = 3.96

Record summary for CCCCCCN(CCCCCC)c1ccc(-n2c(C)nc(C)cc2=O)cc1C#N [Example 42] : reported pIC50 = 4.15

Record summary for Cc1cc(=O)n(-c2ccc(N3CCOCC3)c(F)c2)c(COc2cccnc2)n1 [Example 59] : reported pIC50 = 3.52

###

# System: BHK-21 cells
# PROTOCOL DESCRIPTION: inhibition of BHK-21 cell proliferation (CCK-8, optical density at 450 nm)
# Format: cell-based
# DETAILS: Mesocricetus auratus, inhibition ratio of cell proliferation, 48 hours after dosing, CCK-8
ENDPOINT LABEL: IC50 (µM)
Return type: number; implicit unit µM.

Record summary for Cc1cc(=O)n(-c2ccc(N3CCOCC3)c(Cl)c2)c(COc2cccc(C#N)c2)n1 [Example 65] : reported IC50 = 20

Record summary for CCOCCCNc1ccc(-n2c(C)nc(C)cc2=O)cc1F [Example 34] : reported IC50 = 2490

Record summary for Cc1cc(=O)n(-c2ccc(N3CCOCC3)c(F)c2)c(COc2cccc(F)c2)n1 [Example 20] : reported IC50 = 40

Record summary for Cc1ccc(=O)n(-c2ccc(CN3CCOCC3)c(F)c2)c1 [Example 1] : reported IC50 = 400

Record summary for Cc1cc(=O)n(-c2ccc(N3CCN(C)CC3)c(F)c2)c(C)n1 [Example 12] : reported IC50 = 1400

Record summary for Cc1cc(=O)n(-c2ccc(N3CCOCC3)c(F)c2)c(C)n1 [Example 7] : reported IC50 = 740

Record summary for Cc1cc(=O)n(-c2ccc(N3CCOCC3)c(F)c2)c(COc2ccc(F)c(F)c2)n1 [Example 49] : reported IC50 = 70

Record summary for C#Cc1cccc(OCc2nc(C)cc(=O)n2-c2ccc(N3CCOCC3)c(F)c2)c1 [Example 68] : reported IC50 = 110

Record summary for Cc1cc(=O)n(-c2ccc(NCCCn3cnnn3)c(F)c2)c(C)n1 [Example 37] : reported IC50 = 4310

Record summary for Cc1cc(=O)n(-c2ccc(N3CCCCC3)c(F)c2)c(C)n1 [Example 11] : reported IC50 = 1320

Record summary for Cc1cc(=O)n(-c2ccc(N3CCOCC3)c(F)c2)c(CCc2cccc(F)c2)n1 [Example 52] : reported IC50 = 180

Record summary for Cc1cc(=O)n(-c2ccc(N3CCOCC3)c(Cl)c2)c(COc2cccc(F)c2)n1 [Example 63] : reported IC50 = 40

Record summary for CCCCCCN(CCCCCC)c1ccc(-n2c(COc3cccc(F)c3)nc(C)cc2=O)cc1F [Example 62] : reported IC50 = 310

Record summary for Cc1cc(=O)n(-c2ccc(OCCN3CCOCC3)c(F)c2)c(COc2cccc(F)c2)n1 [Example 56] : reported IC50 = 100

Record summary for Cc1cc(=O)n(-c2ccc(NCCCCN3CCOCC3)c(F)c2)c(C)n1 [Example 31] : reported IC50 = 2220

Record summary for Cc1cc(=O)n(-c2ccc(N3CCOCC3)c(F)c2)c(COc2cncc(F)c2)n1 [Example 60] : reported IC50 = 540

Record summary for Cc1cc(=O)n(-c2ccc(NCCCn3ccnc3)c(F)c2)c(C)n1 [Example 35] : reported IC50 = 3010

Record summary for Cc1cc(=O)n(-c2ccc(N(C)CCN3CCOCC3)c(F)c2)c(C)n1 [Example 28] : reported IC50 = 4990

###

# Tested on: BHK-21 cells
# PROTOCOL DESCRIPTION: inhibition of BHK-21 cell proliferation (CCK-8, optical density at 450 nm)
# Type: cell-based
# DETAILS: Mesocricetus auratus, inhibition ratio of cell proliferation, 48 hours after dosing, CCK-8
Lab note: cut-off is 300 µM. Strictly less in IC50 is Y. Exactly 300 µM or more is N.

## Task IC50 strictly < 300 µM for this compound? Cc1cc(=O)n(-c2ccc(N3CCOCC3)c(F)c2)c(C(F)(F)Oc2cccc(F)c2)n1 [Example 69]
## Result Y

## Task IC50 strictly < 300 µM for this compound? CCCCCCN(CCCCCC)c1ccc(-n2c(C)nc(C)cc2=O)cc1F [Example 24]
## Result Y

## Task IC50 strictly < 300 µM for this compound? Cc1cc(=O)n(-c2ccc(N3CCOCC3)c(C(F)(F)F)c2)c(C)n1 [Example 47]
## Result N

## Task IC50 strictly < 300 µM for this compound? Cc1cc(=O)n(-c2cc(F)c3c(c2)OCC2CCCN32)c(C)n1 (stereo not drawn) [Example 13]
## Result N

## Task IC50 strictly < 300 µM for this compound? Cc1cc(=O)n(-c2ccc(NCCc3cc4ccccc4[nH]3)c(F)c2)c(C)n1 [Example 38]
## Result N

## Task IC50 strictly < 300 µM for this compound? Cc1cc(=O)n(-c2ccc(N3CCOCC3)c(F)c2)c(COC2CCCCC2)n1 [Example 58]
## Result Y

## Task IC50 strictly < 300 µM for this compound? CCCCCCN(CCCCCC)c1ccc(-n2c(C)nc(C)cc2=O)cc1Cl [Example 40]
## Result Y

## Task IC50 strictly < 300 µM for this compound? Cc1cc(=O)n(-c2ccc(-n3cccn3)c(F)c2)c(C)n1 [Example 19]
## Result N

## Task IC50 strictly < 300 µM for this compound? Cc1cc(=O)n(-c2ccc(NCCN3CCOCC3)c(F)c2)c(COc2cccc(F)c2)n1 [Example 57]
## Result Y

###

# System: BHK-21 cells
# PROTOCOL DESCRIPTION: inhibition of BHK-21 cell proliferation (CCK-8, optical density at 450 nm)
# Format: cell-based
# DETAILS: Mesocricetus auratus, inhibition ratio of cell proliferation, 48 hours after dosing, CCK-8
For each record, write down the corresponding IC50.
Return type: number; implicit unit µM.

Record summary for Cc1cc(=O)n(-c2ccc(NCCN3CCOCC3)cc2Cl)c(C)n1 : reported IC50 = 1050

Record summary for Cc1cc(=O)n(-c2ccc(NC(C)(C)Cc3ccc4ccccc4c3)c(Cl)c2)c(C)n1 : reported IC50 = 70

Record summary for Cc1cc(=O)n(-c2ccc(N3CCN(C)CC3)c(F)c2)c(COc2cccc(F)c2)n1 : reported IC50 = 50

###

# Tested on: BHK-21 cells
# PROTOCOL DESCRIPTION: inhibition of BHK-21 cell proliferation (CCK-8, optical density at 450 nm)
# Format: cell-based
# DETAILS: Mesocricetus auratus, inhibition ratio of cell proliferation, 48 hours after dosing, CCK-8
For each record, write down the corresponding log10(IC50).
Recorded IC50 (log10, µM)

Record summary for Cc1cc(=O)n(-c2cnc(-c3ccc(N4CCOCC4)cc3)s2)c(C)n1 : reported log10(IC50) = 2.99

Record summary for Cc1cc(=O)n(-c2ccc(N3CCOCC3)c(Cl)c2)c(C)n1 : reported log10(IC50) = 3.03

Record summary for Cc1cc(=O)n(-c2ccc(NCCCN3CCOCC3)c(F)c2)c(C)n1 : reported log10(IC50) = 2.73

Record summary for Cc1cc(=O)n(-c2ccc3ccn(COc4cccc(C#N)c4)c3c2)c(C)n1 : reported log10(IC50) = 2.54

Record summary for Cc1cc(=O)n(-c2ccc(N3CCOCC3)c(Cl)c2)c(COc2cccc(Cl)c2)n1 : reported log10(IC50) = 2.28

Record summary for Cc1cc(=O)n(-c2ccc(NCCN3CCCCC3)c(F)c2)c(C)n1 : reported log10(IC50) = 3.43

Record summary for Cc1cc(=O)n(-c2ccc(N3CCOCC3)c(F)c2)c(CSc2cccc(F)c2)n1 : reported log10(IC50) = 2.00

Record summary for Cc1cc(=O)n(-c2ccc(N3CCCC3)c(F)c2)c(C)n1 : reported log10(IC50) = 3.11

Record summary for Cc1cc(=O)n(-c2ccc(N3CCS(=O)(=O)CC3)c(F)c2)c(C)n1 : reported log10(IC50) = 3.74
